For each entry below, report its kcat value.
B1: glmS ribozyme (parent)
chain: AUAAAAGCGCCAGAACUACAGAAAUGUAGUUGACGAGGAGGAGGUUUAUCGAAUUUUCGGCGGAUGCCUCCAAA

Variants of: B1
Assay: kcat; higher = faster cleavage; RNA array
Conditions: with glucosamine-6-phosphate
Fewer inactive variants are shown than the library holds.

Value lookup for kcat; key = AUAAAAGCGCCAGAUCUACAGAAAUGUAGUUGACGAGGAGGAGGUUUAUCGAAUUUUCGGAGGAUGCCUCCAAA
< 1e-05 s⁻¹

Value lookup for kcat; key = AUAAAAGCGCCAGAACUACAGAAAUGUAGUUGACGAGGAGGAGGUUUAUCGAAUUUUCGGCGCAUGGCUCCAAA
< 1e-05 s⁻¹

Value lookup for kcat; key = AUAAAAGCGCCAGAACUACAGAAAUGUAGUAGACGAGGAGGAGGUUUCUCGAAUUUUCGGCGGAUGCCUCCAAA
0.000149 s⁻¹

Value lookup for kcat; key = AUAAAAGCGCCCGAUCUACAGAAAUGUAGUUGACGAGGAGGAGGUUUAUCGAAUUUUCGGCGGAUGCCUCCAAA
0.00259 s⁻¹

Value lookup for kcat; key = AUAAAAGCGCCAGAACUACAGAAAUGUAGUUGACGAAGAGGAGGUUUAUCGAAUUUUCGGCAGAUGCCUCCAAA
< 1e-05 s⁻¹

Value lookup for kcat; key = AUAAAAGCGCCAGAACUACAGAAAUGUAGUUGACGAGGAGUAGGUUUAUCGAAUUUUCGGCGGAUUCCUCCAAA
5.98e-05 s⁻¹

Value lookup for kcat; key = AUAAAAGCGCUAGAACUACAGAAAUGUAUUUGACGAGGAGGAGGUUUAUCGAAUUUUCGGCGGAUGCCUCCAAA
0.000681 s⁻¹

Value lookup for kcat; key = AUAAAAGCGCCAGCACUACAGAAAUGUAGUUGACGAGGAGGAGGUUUAGCGAAUUUUCGGCGGAUGCCUCCAAA
0.000151 s⁻¹

Value lookup for kcat; key = AUAAAAGCGCCAGAACUACAGAAAUGUAGUUGGCGAGGAGGAGGUUUAUCGAAUUUUCGCCGGAUGCCUCCAAA
< 1e-05 s⁻¹

Value lookup for kcat; key = AUAAAAGCGCCAGAACUACAGAAAUGUAGUUGACGAGGAGGAGGAUUAUCGAAUUUUCGGCGGACGCCUCCAAA
0.00412 s⁻¹

Value lookup for kcat; key = AUAAAGGCGCCAGAACUACAGAAAUGUAGUUGACGAGGAGGAGGUUUAUCGAAUUUUCGGCGGAUGCUUCCAAA
0.000115 s⁻¹

Value lookup for kcat; key = AUAAAAGCGCCAGAACUACAGAAAUGUAUUUGACGAGGAGGAGGUUUUUCGAAUUUUCGGCGGAUGCCUCCAAA
4.34e-05 s⁻¹

Value lookup for kcat; key = AUAAAAGCGCCAGACCUACAGAAAUGUAGUUGACGAGGAGGGGGUUUAUCGAAUUUUCGGCGGAUGCCUCCAAA
0.00745 s⁻¹

Value lookup for kcat; key = AUAAAAGCGCCAGAAAUACAGAAAUGUAGUUGACGAGGAAGAGGUUUAUCGAAUUUUCGGCGGAUGCCUCCAAA
0.000202 s⁻¹

Value lookup for kcat; key = AUAAAAGCGCCGGAACUACAGAAAUGUAGUUGACGAGGAGGAGGGUUAUCGAAUUUUCGGCGGAUGCCUCCAAA
0.000591 s⁻¹
